Please go through the items and note down their folding stability dG unfold.
Procedure details: folding stability dG unfold (combined trypsin and chymotrypsin); higher = more stable

input: Could you share which folding stability dG unfold value was measured for SAGGEKTLTVEYNPEDDYLTFTLTLTRPGYDPVTGKPREYKVTLTFTVPLNEATPEHVKLALEIYEKDSAGG [r13_980_TrMRF] ?
output: 4.28 kcal/mol

input: How about this sequence: SAGGMKVTVTEDGSSSKVTITIKDPKTGIEKTYTATATVLPDGTVVYTITYPDGSKKTIPSSELELSSAGGS [r16_154_JUSTAS]
output: 3.61 kcal/mol

input: How about this sequence: SAGGSAGGSAGIGSKKPVIKKNIEIEPEIKVEGGKGGSKVKIEYKAKIEIKVYIISKNNPSAGGSAGGSAGG [r17_186_TrMRF]
output: 1.98 kcal/mol

input: How about this sequence: SAGGPPWVRVVDVRIEPVEDGGERRITLTFPPDVTLEEVRERVREMLPPGAEAELTVERVEVRPVLASAGGS [r16_393_JUSTAS]
output: 1.49 kcal/mol

----------
Please go through the items and note down their folding stability dG unfold.
Procedure details: folding stability dG unfold (combined trypsin and chymotrypsin); higher = more stable
Give just the number in kcal/mol; leave the unit off.

input: Could you share which folding stability dG unfold value was measured for SLSEEELKKKLEELKKKLKPPKPKVKKVKVKIKNKETNEEIEEEVEIVETPDTVYIYNKKTGKLFKFKIKSA [r9_548_TrROS_Hall] ?
output: 1.73

input: How about this sequence: SAGGSAGGSAEVFIVKFSDPAKLKAFMEKLGLSYEKGDNPKITNPEEFLKNLPLVKNVVVTKKSAGGSAGGS [r12_571_JUSTAS]
output: 0.423

----------
Procedure details: folding stability dG unfold (combined trypsin and chymotrypsin); higher = more stable
Recorded endpoint: folding stability dG unfold (kcal/mol)
Give just the number in kcal/mol; leave the unit off.

input: Could you share which folding stability dG unfold value was measured for SAGGMKPGETWRIRTPGKTITIEVKDGKITVTVEENGKKKTIVVEAETEEEALEALRSIPGLEIEKVSAGGS [r16_583_TrROS_Hall] ?
output: 1.61

input: How about this sequence: SMPEILDVREDPDAPGALTFRVKLPDGEATVVIPYDPETGTFTAVRYYPDGEEVREFDSFEDALEAILEDSA [r9_366_TrMRF]
output: 1.49

input: How about this sequence: SAGGPTIRLLVLPNKAEEVAEAIKKEFGAEVKILRVEPYPLPGPDGKVLKPVYLVEIEVKVKDPRLPLSAGG [r13_943_TrMRF]
output: 1.29

input: How about this sequence: GPEVLVETFVDPETGRVVVRVYFPEPDRLVLAVGERGGDGVRVLVVEYEADPLEPRFAEFEFPALPEGFDES [r1_404_TrMRF]
output: 2.44

input: How about this sequence: SAMVIIRVENKDGKTIEIAIPVRNEDGKLTKEELEELAKRLAEELAEELGLEDVKVEVEVRPLSEEELKSAG [r14_378_TrROS_Hall]
output: 2.35

----------
Procedure details: folding stability dG unfold (combined trypsin and chymotrypsin); higher = more stable
Recorded endpoint: folding stability dG unfold (kcal/mol)
Give just the number in kcal/mol; leave the unit off.

input: Could you share which folding stability dG unfold value was measured for SGREEEIAEELREKLLAEGYTEVEVEIEVRPDPNSDNVLVTVTVRATKKDAEGNWKTYEETIPVLIPAEASA [r9_440_JUSTAS] ?
output: 3.11

input: How about this sequence: QRVLPFKNPDGDYWVMIMNPNGDPLVEHRIPNDPEQMEKAIHKLMEQLPNFDPEDLRIAVMNPKNGESQEIS [r1_55_TrROS]
output: 0.61

input: How about this sequence: SAGGSAGGSAGGPILKITLELSPEEIEELAKALGLKVKKVEKEKNKDGKLRVTIYIELKSAGGSAGGSAGGS [r10_999_TrROS_Hall]
output: 2.81

input: How about this sequence: SAGGSAGGSAGMGVPPDGATLRFTYPESPSSTRTFTSPEEAAAWIAANLPPEHSVSFSPASAGGSAGGSAGG [r11_983_JUSTAS]
output: 0.684

input: How about this sequence: SAGGSMKIEKLPDGKTVVIETVDEETNTITRTRFKLDKDGKLVEMEVETITLPAPPPEEVDEDGKESAGGSA [r2_375_TrROS_Hall]
output: 2.17

input: How about this sequence: SAGDYDVEKDPDGYRVEHKNGDKRYVPPVPPPIPVVMIPIKDPEDLDEFANELGLNITDISDDWITMPASAG [r5_328_TrROS]
output: -0.158

input: How about this sequence: SAGGSKYPIEVTDPENGNPVLLEDVESLASVTQEEPGDGRSLYTATVPETGEPVFLTSPEKLAAALSSAGGS [r8_206_JUSTAS]
output: 0.384

input: How about this sequence: SAGGSAGGSAGMKLTITVTFPDGTTPTFEVPPNSGDPAEVAAAIRAAHPDVVTITITPELSAGGSAGGSAGG [r11_311_JUSTAS]
output: 0.448

input: How about this sequence: SAGGSAGGSFPLDEIRKFAKKLGNPFIEIEPVKPHVYRIKIYNKKNGKKKEFPIYLDEDGKIMSAGGSAGGS [r12_170_TrROS]
output: 1.16

input: How about this sequence: SAVSTAQLPDDTTLTTITLPGDPSVTLTITTRKLPDGTPYLDATITLPDGTPVTVTFPAGTEAAVIAALASA [r9_310_JUSTAS]
output: 2.44

input: How about this sequence: SITIMVDNLPPGATAEELASTLFNWIQQFGWEVTPIKITPMPDNWVTVEIEFKNNGKPIFRETIEFRPDASA [r9_953_TrROS]
output: 3.26

input: How about this sequence: SAGGEEELKKNPDLIVIKITIRNKETGEEIEELEIVLSKEELEELLETLRKLLPPGWEIVKVEIRKLPSAGG [r13_849_TrROS_Hall]
output: 4
